Target: T1, Dnase1L3 R132A (human, UniProt Q13609 21-305, R132A)
T1 sequence: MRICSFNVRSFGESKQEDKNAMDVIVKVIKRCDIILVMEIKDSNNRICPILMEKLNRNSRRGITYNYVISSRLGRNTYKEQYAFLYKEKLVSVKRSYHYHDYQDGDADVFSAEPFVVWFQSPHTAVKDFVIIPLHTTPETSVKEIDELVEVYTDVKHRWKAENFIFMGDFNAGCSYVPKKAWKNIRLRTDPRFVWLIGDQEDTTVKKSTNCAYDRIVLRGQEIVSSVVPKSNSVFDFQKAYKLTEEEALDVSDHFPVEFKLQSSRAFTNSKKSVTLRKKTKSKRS
Experiment: fluorescence polarization; 1 mM EDTA; FP: 50 mM Hepes pH 7.5 (Results say pH 7.4), 100 mM NaCl, 0.1 mM EDTA (1 mM for Dnase1L3/Dnase1), 1% glycerol, 1 mM TCEP, 0.1% PEG 6000, 20 nM dsDNA, 30 min at
Conditions: protein: recombinant; blunt
pKd: −log10 of the molar value.

{"BINDER": "FITC 40-mer dsDNA (dsDNA) DNA 1: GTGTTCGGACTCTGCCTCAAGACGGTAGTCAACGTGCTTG DNA 2: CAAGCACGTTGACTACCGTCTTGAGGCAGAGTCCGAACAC", "pKd": 5.31}
